Where these numbers come from: patent US20240124605A1

Molecular target: T1, CD123-Fc (Sino Biological) (human, UniProt P26951 19-305)
T1 construct: Bought reagent; not shown: Fc of the bought fusion (detected with anti-human Fc, captured on AHC sensor)
T1 sequence: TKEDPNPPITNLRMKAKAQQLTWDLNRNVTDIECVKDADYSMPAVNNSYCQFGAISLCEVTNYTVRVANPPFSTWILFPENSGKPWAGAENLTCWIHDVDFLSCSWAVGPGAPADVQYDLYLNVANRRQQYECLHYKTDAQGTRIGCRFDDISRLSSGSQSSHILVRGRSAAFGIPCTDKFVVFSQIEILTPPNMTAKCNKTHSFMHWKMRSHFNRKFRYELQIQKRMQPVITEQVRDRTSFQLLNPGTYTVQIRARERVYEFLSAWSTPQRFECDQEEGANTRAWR
Assay: BLI (Octet), CD123-Fc captured on AHC sensor, Adapter 500-0.69 nM in solution, global 1:1 fit, 25 C
Listing of entries alongside the reported koff.
Enter your answer as a number in s⁻¹; do not include the unit.

Incoming: Requested field: koff. Item: Adapter protein comprising the 6T1D D domain and a P26(Q26-V229) AFP polypeptide (designed binder, also called parental D domain (6T1D); not shown: His tag (purified on Ni-Sepharose)) MGSWDEFGRRLYAIEWQLYALGGTEAELAAFEKEIAAFESELQAYKGKGNPEVEKLREIAAVIRENLQAYRHNQESQALAKRSCGLFQKLGEYYLQNAFLVAYTKKAPQLTSSELMAITRKMAATAATCCQLSEDKLLACGEGAADIIIGHLCIRHEMTPVNPGVGQCCTSSYANRRPCFSSLVVDETYVPPAFSDDKFIFHKDLCQAQGVALQTMKQEFLINLVKQKPQITEEQLEAVIADFSGLLEKCCQGQEQEVCFAEEGQKLISKTRAALGV
Outgoing: 0.00105

Incoming: Requested field: koff. Item: Adapter protein comprising the 8W9C D domain and a P26(Q26-V229) AFP polypeptide (designed binder, also called wild type; not shown: His tag (purified on Ni-Sepharose)) MGSWDEFGRRLYAIEWRLYALGGSEAELAAFEKEIAAFESELQAYKGKGNPEVEKLREIAAVIRSNLQAYRHNQESQALAKRSCGLFQKLGEYYLQNAFLVAYTKKAPQLTSSELMAITRKMAATAATCCQLSEDKLLACGEGAADIIIGHLCIRHEMTPVNPGVGQCCTSSYANRRPCFSSLVVDETYVPPAFSDDKFIFHKDLCQAQGVALQTMKQEFLINLVKQKPQITEEQLEAVIADFSGLLEKCCQGQEQEVCFAEEGQKLISKTRAALGV
Outgoing: 0.000924

Incoming: Requested field: koff. Item: Adapter protein comprising the 4R8U D domain and a P26(Q26-V229) AFP polypeptide (designed binder, also called 6T1D(K48E, N50S); not shown: His tag (purified on Ni-Sepharose)) MGSWDEFGRRLYAIEWQLYALGGTEAELAAFEKEIAAFESELQAYKGEGSPEVEKLREIAAVIRENLQAYRHNQESQALAKRSCGLFQKLGEYYLQNAFLVAYTKKAPQLTSSELMAITRKMAATAATCCQLSEDKLLACGEGAADIIIGHLCIRHEMTPVNPGVGQCCTSSYANRRPCFSSLVVDETYVPPAFSDDKFIFHKDLCQAQGVALQTMKQEFLINLVKQKPQITEEQLEAVIADFSGLLEKCCQGQEQEVCFAEEGQKLISKTRAALGV
Outgoing: 0.000304

Incoming: Requested field: koff. Item: Adapter protein comprising the 4I0K D domain and a P26(Q26-V229) AFP polypeptide (designed binder, also called 6T1D(W16S); not shown: His tag (purified on Ni-Sepharose)) MGSWDEFGRRLYAIESQLYALGGTEAELAAFEKEIAAFESELQAYKGKGNPEVEKLREIAAVIRENLQAYRHNQESQALAKRSCGLFQKLGEYYLQNAFLVAYTKKAPQLTSSELMAITRKMAATAATCCQLSEDKLLACGEGAADIIIGHLCIRHEMTPVNPGVGQCCTSSYANRRPCFSSLVVDETYVPPAFSDDKFIFHKDLCQAQGVALQTMKQEFLINLVKQKPQITEEQLEAVIADFSGLLEKCCQGQEQEVCFAEEGQKLISKTRAALGV
Outgoing: 0.00252

Consider the additional binder presented here.
Incoming: Requested field: koff. Item: Adapter protein comprising the 3F4N D domain and a P26(Q26-V229) AFP polypeptide (designed binder, also called 6T1D(N50S); not shown: His tag (purified on Ni-Sepharose)) MGSWDEFGRRLYAIEWQLYALGGTEAELAAFEKEIAAFESELQAYKGKGSPEVEKLREIAAVIRENLQAYRHNQESQALAKRSCGLFQKLGEYYLQNAFLVAYTKKAPQLTSSELMAITRKMAATAATCCQLSEDKLLACGEGAADIIIGHLCIRHEMTPVNPGVGQCCTSSYANRRPCFSSLVVDETYVPPAFSDDKFIFHKDLCQAQGVALQTMKQEFLINLVKQKPQITEEQLEAVIADFSGLLEKCCQGQEQEVCFAEEGQKLISKTRAALGV
Outgoing: 0.000275
